The next entries give measured pIC50 for elastase (porcine pancreatic) (Sus scrofa, UniProt P00772).
pIC50: −log10 of the molar value.
measure: pIC50

> print(dat)
                              smiles.record  readout.number
1        O=C(Cc1cccs1)N[C@H](B(O)O)c1ccccc1            3.89
2  O=C(Cc1cccs1)N[C@H](B(O)O)c1cccc(C(=O)O)c1            3.30

###

Parameter Ki: see the listing below.
Biological target: AmpC β-lactamase (Escherichia coli)
Construct: made in house
Sequence (P00811 20-377): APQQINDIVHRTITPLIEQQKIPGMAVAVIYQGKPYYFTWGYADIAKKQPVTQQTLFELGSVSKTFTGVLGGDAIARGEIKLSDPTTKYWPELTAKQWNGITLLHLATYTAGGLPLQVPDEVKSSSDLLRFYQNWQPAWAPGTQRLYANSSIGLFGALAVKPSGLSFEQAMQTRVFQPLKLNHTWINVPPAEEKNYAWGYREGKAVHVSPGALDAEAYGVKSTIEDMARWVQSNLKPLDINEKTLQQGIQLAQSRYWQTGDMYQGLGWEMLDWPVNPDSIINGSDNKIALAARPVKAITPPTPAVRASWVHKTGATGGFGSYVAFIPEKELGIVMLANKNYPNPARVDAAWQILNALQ
Test: biochemical
measure: Ki (µM)

> print(dat)
                                   compound  measure  readout.number
1  O=C(Cc1cccs1)NCB(O)O [Compound 4, reference compound]       Ki           0.186
2        O=C(Cc1cccs1)N[C@H](B(O)O)c1ccccc1       Ki           0.035
3  O=C(Cc1cccs1)N[C@H](B(O)O)c1cccc(C(=O)O)c1       Ki           0.001
4       CC(=O)N[C@H](B(O)O)c1cccc(C(=O)O)c1       Ki            0.13
5  CC1(C)C2CC3OB([C@@H](NC(=O)Cc4cccs4)c4cccc(C=O)c4)O[C@@]3(C)C1C2 (single isomer, unassigned; (+))       Ki           0.015
6  Cc1onc(-c2ccccc2Cl)c1C(=O)N[C@H](B(O)O)c1cccc(C(=O)O)c1       Ki             5.7

###

Below is a list of entries, each paired with its recorded pKi value.
Biological target: AmpC N289A (Escherichia coli, UniProt P00811, N305A)
Sequence (P00811 20-377 N305A): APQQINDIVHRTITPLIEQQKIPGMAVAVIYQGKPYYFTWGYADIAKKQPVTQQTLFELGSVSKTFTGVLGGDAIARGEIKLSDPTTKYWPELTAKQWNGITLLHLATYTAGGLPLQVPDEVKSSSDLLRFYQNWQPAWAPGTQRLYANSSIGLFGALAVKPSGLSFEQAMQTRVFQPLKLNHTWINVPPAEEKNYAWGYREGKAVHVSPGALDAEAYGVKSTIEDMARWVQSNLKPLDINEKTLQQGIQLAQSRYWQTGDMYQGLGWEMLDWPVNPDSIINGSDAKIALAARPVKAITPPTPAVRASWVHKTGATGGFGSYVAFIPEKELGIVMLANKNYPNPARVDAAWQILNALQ
Experiment: biochemical
pKi: −log10 of the molar value.
measure: pKi

> print(dat)
                                   molecule  readout.number
1        O=C(Cc1cccs1)N[C@H](B(O)O)c1ccccc1            7.43
2  O=C(Cc1cccs1)N[C@H](B(O)O)c1cccc(C(=O)O)c1            7.77
3  CC1(C)C2CC3OB([C@@H](NC(=O)Cc4cccs4)c4cccc(C=O)c4)O[C@@]3(C)C1C2 (single isomer, unassigned; (+))            7.74

###

Target: AmpC L293A (Escherichia coli, UniProt P00811, L309A)
Sequence (P00811 20-377 L309A): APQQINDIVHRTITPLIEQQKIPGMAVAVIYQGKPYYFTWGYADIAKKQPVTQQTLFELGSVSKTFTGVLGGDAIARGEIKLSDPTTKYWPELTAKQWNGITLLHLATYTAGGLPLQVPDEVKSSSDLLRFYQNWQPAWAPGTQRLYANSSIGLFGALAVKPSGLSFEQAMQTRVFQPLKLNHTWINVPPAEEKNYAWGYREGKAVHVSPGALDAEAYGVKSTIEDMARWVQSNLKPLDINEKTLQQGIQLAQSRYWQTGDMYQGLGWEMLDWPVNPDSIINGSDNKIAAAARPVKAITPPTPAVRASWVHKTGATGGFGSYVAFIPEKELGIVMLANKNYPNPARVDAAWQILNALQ
Assay: biochemical
pKi: −log10 of the molar value.
measure: pKi

> print(dat)
                                   molecule                     target.or.test.system  readout.number
1  O=C(Cc1cccs1)NCB(O)O [Compound 4, reference compound]  AmpC L293A (Escherichia coli, UniProt P00811, L309A)            5.21
2        O=C(Cc1cccs1)N[C@H](B(O)O)c1ccccc1  AmpC L293A (Escherichia coli, UniProt P00811, L309A)            6.28

###

Data export: IC50 values recorded with α-chymotrypsin (bovine pancreatic) (Bos taurus).
measure: IC50 (µM)

> print(dat)
                              smiles.record  measure  readout.number
1  O=C(Cc1cccs1)N[C@H](B(O)O)c1cccc(C(=O)O)c1     IC50             150
2        O=C(Cc1cccs1)N[C@H](B(O)O)c1ccccc1     IC50               6
